System: Dendritic cell
Assay: Antiinflammatory activity in human monocytes-derived dendritic cells assessed as decrease in IL-12p40 secretion at 10 ug/ml after 24 hrs by ELISA method relative to control
Type: functional
Conditions: dose 10.0 µg/ml
The source made the active and inactive calls. No cut-off for these calls is given here.
Quantity Name: Activity

Compound: C=CC(C)(C)[C@@]12CCN(C)[C@@H]1N(CC=C(C)C)c1cc(Br)ccc12
Activity: inactive
--
Compound: C=CC(C)(C)[C@@]1(CCNC)C(=O)Nc2cc(Br)ccc21
Activity: inactive
--
Compound: C=CC(C)(C)[C@@]12CCN[C@@H]1Nc1cc(Br)ccc12
Activity: inactive
--
Compound: C=CC(C)(C)[C@@]12CCN(C)C1=Nc1cc(Br)ccc12
Activity: inactive
--
Compound: C=CC(C)(C)[C@@]12CCN(C)[C@@H]1N(C)c1cc(Br)ccc12
Activity: inactive

// Activity lookup, key: CC(C)=CC[C@@]12CCN(C)[C@@H]1Nc1c(Br)ccc(O)c12
inactive

Request: CC(C)=CC[C@@]12CCN(C)[C@@H]1Nc1cc(Br)ccc12
inactive
